Provenance of the data: ChEMBL document CHEMBL1153351

- Test system: CYP2D6 (Homo sapiens)
- Sequence (P10635 whole entry): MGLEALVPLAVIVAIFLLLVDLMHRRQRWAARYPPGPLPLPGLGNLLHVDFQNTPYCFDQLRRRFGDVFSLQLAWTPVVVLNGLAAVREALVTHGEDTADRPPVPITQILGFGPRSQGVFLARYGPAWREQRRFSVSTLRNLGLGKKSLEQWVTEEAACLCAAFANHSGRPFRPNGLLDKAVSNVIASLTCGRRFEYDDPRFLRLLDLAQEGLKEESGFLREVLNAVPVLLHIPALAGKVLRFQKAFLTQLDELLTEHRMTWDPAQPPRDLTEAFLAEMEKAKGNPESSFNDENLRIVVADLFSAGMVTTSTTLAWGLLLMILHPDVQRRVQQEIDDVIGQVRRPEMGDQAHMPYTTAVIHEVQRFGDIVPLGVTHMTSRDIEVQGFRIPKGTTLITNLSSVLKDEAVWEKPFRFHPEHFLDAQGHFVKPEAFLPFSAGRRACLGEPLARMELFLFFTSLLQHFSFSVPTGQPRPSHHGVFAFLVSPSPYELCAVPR
- Test method notes: Inhibition of CYP2D6 at 3 uM
- Type: ADME

Smiles record: O=S(=O)(c1ccc2c(c1)CCNCC2)N1CCC(Oc2ccccc2Cl)CC1
inhibition at 3 µM, %: 69

* * *

- Test method notes: Apparent permeability from apical to basolateral side of MDCK cells expressing mdr1
- Assay type: ADME, cell-based, Canis lupus familiaris
- Test settings: dog
Please mark y if the recorded Papp A→B is equal to or greater than 20 ×10⁻⁶ cm/s, and n if it falls below.

Compound: O=S(=O)(c1ccc2c(c1)CCNCC2)N1CC[C@@H](Oc2ccccc2Cl)C1
Group: n
//
Compound: O=S(=O)(c1ccc2c(c1)CCNCC2)N1CC(Oc2cccc(Cl)c2)C1
Group: n
//
Compound: O=S(=O)(c1ccccc1)c1ccc2c(c1)CCNCC2
Group: y
//
Compound: O=S(=O)(c1ccc2c(c1)CCNCC2)N1CCC(Oc2ccccc2Cl)CC1
Group: n
//
Compound: CN(Cc1ccccc1)S(=O)(=O)c1ccc2c(c1)CCNCC2
Group: y
//
Compound: CN(CC1COc2ccccc21)S(=O)(=O)c1ccc2c(c1)CCNCC2 (stereo unspecified)
Group: n

* * *

- Test system: UniProt:P28335
- Sequence (P28335 whole entry): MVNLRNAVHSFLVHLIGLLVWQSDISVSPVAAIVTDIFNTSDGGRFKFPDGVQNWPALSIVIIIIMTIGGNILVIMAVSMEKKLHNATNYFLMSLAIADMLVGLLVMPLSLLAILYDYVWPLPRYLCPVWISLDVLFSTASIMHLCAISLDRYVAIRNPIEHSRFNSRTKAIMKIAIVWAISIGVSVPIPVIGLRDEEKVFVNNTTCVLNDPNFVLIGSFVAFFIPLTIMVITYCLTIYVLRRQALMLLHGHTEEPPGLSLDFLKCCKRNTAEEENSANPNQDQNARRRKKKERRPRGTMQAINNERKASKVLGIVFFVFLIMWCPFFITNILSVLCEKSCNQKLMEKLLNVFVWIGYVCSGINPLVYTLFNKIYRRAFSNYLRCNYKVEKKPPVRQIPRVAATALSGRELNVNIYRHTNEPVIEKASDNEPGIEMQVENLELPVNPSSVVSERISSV
- Test method notes: Agonist activity at human recombinant 5HT2C receptor expressed in CHOK1 cells assessed as calcium mobilization by FLIPR assay
Reported log10 of EC50 values for a set of molecules
Value type: log10 of EC50 (log10 of the value in nM)

Molecule: O=S(=O)(Nc1ccccc1Cl)c1ccc2c(c1)CCNCC2
Recorded value: 2.93

Molecule: O=S(=O)(c1ccc2c(c1)CCNCC2)N1CCC(Oc2ccccc2F)CC1
Recorded value: 2.06

Molecule: O=S(=O)(Nc1ccccc1F)c1ccc2c(c1)CCNCC2
Recorded value: 2.29

Molecule: O=S(=O)(c1cccc(F)c1)c1ccc2c(c1)CCNCC2
Recorded value: 0.95

Molecule: O=S(=O)(c1ccc2c(c1)CCNCC2)N1CCCCC1
Recorded value: 1.92

Molecule: COc1cc(S(=O)(=O)N2CCC(Oc3ccccc3Cl)CC2)c(OC)c2c1CCNCC2
Recorded value: 2.56

Molecule: O=S(=O)(Nc1ccccc1)c1ccc2c(c1)CCNCC2
Recorded value: 2.84

Molecule: O=S(=O)(c1ccc2c(c1)CCNCC2)N1CC(Oc2ccc(Cl)cc2)C1
Recorded value: 1.45

Molecule: O=S(=O)(c1ccc2c(c1)CCNCC2)N1CCC(Oc2cccc(Cl)c2)CC1
Recorded value: 2.44

Molecule: O=S(=O)(c1ccc2c(c1)CCNCC2)N1CCOCC1
Recorded value: 2.27

Molecule: O=S(=O)(c1ccc2c(c1)CCNCC2)N1CC[C@@H](Oc2ccccc2Cl)C1
Recorded value: 1.15

Molecule: O=S(=O)(NCC1CC1)c1ccc2c(c1)CCNCC2
Recorded value: 2.80

Molecule: CN(CC1CC1)S(=O)(=O)c1ccc2c(c1)CCNCC2
Recorded value: 1.85

Molecule: O=S(=O)(c1ccc(F)cc1)c1ccc2c(c1)CCNCC2
Recorded value: 1.90

Molecule: O=S(=O)(c1ccccc1)c1ccc2c(c1)CCNCC2
Recorded value: 0.95

Molecule: O=S(=O)(c1ccc2c(c1)CCNCC2)N1CCCC1
Recorded value: 1.70

Molecule: CN(C)S(=O)(=O)c1ccc2c(c1)CCNCC2
Recorded value: 1.67

Molecule: CN(Cc1ccccc1)S(=O)(=O)c1ccc2c(c1)CCNCC2
Recorded value: 1.97

Molecule: O=S(=O)(c1ccc2c(c1)CCNCC2)N1CC(Oc2ccccc2Cl)C1
Recorded value: 1.49

Molecule: O=S(=O)(c1ccc2c(c1)CCNCC2)N1CC(Oc2cccc(Cl)c2)C1
Recorded value: 1.08

Molecule: O=S(=O)(c1ccc2c(c1)CCNCC2)N1CCC(Oc2ccccc2Cl)CC1
Recorded value: 1.49

Molecule: O=S(=O)(c1ccc2c(c1)CCNCC2)c1ccccc1F
Recorded value: 0.85

Molecule: CCCNS(=O)(=O)c1ccc2c(c1)CCNCC2
Recorded value: 2.98

Molecule: O=S(=O)(c1ccc2c(c1)CCNCC2)N1CCC(Oc2ccccc2)CC1
Recorded value: 2.71

Molecule: COc1cc(S(=O)(=O)N(C)Cc2ccccc2)c(OC)c2c1CCNCC2
Recorded value: 2.23

Molecule: O=S(=O)(NCc1ccccc1Cl)c1ccc2c(c1)CCNCC2
Recorded value: 1.66

Molecule: CN(CC1COc2ccccc21)S(=O)(=O)c1ccc2c(c1)CCNCC2 (stereo not drawn)
Recorded value: 1.61

Molecule: O=S(=O)(c1ccc2c(c1)CCNCC2)N1CC[C@H](Oc2ccccc2Cl)C1
Recorded value: 1.49
